Target: D(2) dopamine receptor (Homo sapiens, UniProt P14416)
Sequence (P14416 whole entry): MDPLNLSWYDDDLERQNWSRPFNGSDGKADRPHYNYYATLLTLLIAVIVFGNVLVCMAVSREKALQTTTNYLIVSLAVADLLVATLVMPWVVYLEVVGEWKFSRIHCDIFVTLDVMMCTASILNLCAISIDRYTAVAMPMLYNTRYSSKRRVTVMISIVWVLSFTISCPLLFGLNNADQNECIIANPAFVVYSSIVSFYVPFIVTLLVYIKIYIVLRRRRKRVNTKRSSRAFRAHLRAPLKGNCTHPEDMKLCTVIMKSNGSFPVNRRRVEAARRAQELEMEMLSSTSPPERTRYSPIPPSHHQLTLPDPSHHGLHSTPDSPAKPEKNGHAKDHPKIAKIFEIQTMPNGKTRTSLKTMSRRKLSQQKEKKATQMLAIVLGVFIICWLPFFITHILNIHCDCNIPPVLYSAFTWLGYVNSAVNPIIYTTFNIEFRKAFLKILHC
# note: boundary value 3 nM maps to not satisfied; Ki below it maps to satisfied

Determine if `Fc1ccc2c(C3CCN(CCCOc4ccc(CN5CCCC5)cc4Cl)CC3)noc2c1` shows Ki strictly lower than 3 nM. not satisfied

Also, `CC1CCN(CCc2ccc(OCCCCN3CCC(c4noc5cc(F)ccc45)CC3)cc2)CC1` please. satisfied

// next record `Fc1ccc2c(C3CCN(CCCOc4ccc(CN5CCOCC5)cc4)CC3)noc2c1` satisfied

Also need `CN1CCN(Cc2ccc(OCCCN3CCC(c4noc5cc(F)ccc45)CC3)cc2)CC1` , thanks. satisfied

// query: `Fc1ccc2c(C3CCN(CCCOc4ccc(CN5CCOCC5)c(F)c4)CC3)noc2c1` satisfied

And `O=c1ccc(OCCCN2CCC(c3noc4cc(F)ccc34)CC2)nn1-c1c(F)cccc1F` ? not satisfied

Note, next up: `Fc1ccc2c(C3CCN(CCCCOc4ccc(CN5CCOCC5)cc4)CC3)noc2c1` satisfied

Same read-out for `Cc1cc(=O)oc2c(Cl)c(OCCCCN3CCC(c4noc5cc(F)ccc45)CC3)ccc12` ? satisfied

// same read-out, input: `Cc1cc(OCCCN2CCC(c3noc4cc(F)ccc34)CC2)ccc1CN1CCCC1` not satisfied

For `O=C(CCCN1CCC(c2noc3cc(F)ccc23)CC1)c1cc2c3c(c1)CCN3C(=O)CC2` then? satisfied

Values from ChEMBL document CHEMBL4819047
